B1: CHCHD6 (parent)
chain: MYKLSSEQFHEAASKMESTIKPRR

# Variants of: B1
# PROTOCOL SUMMARY: protein stability index of a GFP-peptide fusion (GPS, HEK-293T) (PSI 1-6); higher = more stable;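 note: lentivirally expressed fusions sorted by FACS into six bins by GFP to DsRed ratio, PSI derived from sequencing read proportions per bin multiplied by bin number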
# ASSAY SETUP: c terminus: a fixed tail appended
RESULT TYPE: protein stability index

# POLYMER SEQUENCE, RESULT TYPE, MEASURED RESULT
rows = [
    ("MYKLSSEQFKEAASKMESTIKPRR [H10K]", "protein stability index", 4),
    ("MYKLSSEQFHWAASKMESTIKPRR [E11W]", "protein stability index", 2.77),
    ("MYKLSSEQFHEAASKMESTIKLRR [P22L]", "protein stability index", 3.92),
    ("MYHLSSEQFHEAASKMESTIKPRR [K3H]", "protein stability index", 3.98),
    ("MYKLSSEQFHEFASKMESTIKPRR [A12F]", "protein stability index", 3.27),
    ("MYKLSSEQFHEANSKMESTIKPRR [A13N]", "protein stability index", 4.24),
    ("SYKLSSEQFHEAASKMESTIKPRR [M1S]", "protein stability index", 4),
    ("MYKFSSEQFHEAASKMESTIKPRR [L4F]", "protein stability index", 3.5),
    ("MDKLSSEQFHEAASKMESTIKPRR [Y2D]", "protein stability index", 4.83),
    ("MYKLSSEQFHEAASKMESQIKPRR [T19Q]", "protein stability index", 4.09),
    ("MYKLSSEQFHEATSKMESTIKPRR [A13T]", "protein stability index", 4.02),
    ("MYKLSSEQFYEAASKMESTIKPRR [H10Y]", "protein stability index", 3.52),
    ("MYKLSEEQFHEAASKMESTIKPRR [S6E]", "protein stability index", 3.53),
    ("MNKLSSEQFHEAASKMESTIKPRR [Y2N]", "protein stability index", 4.51),
    ("MYKLSSEQFVEAASKMESTIKPRR [H10V]", "protein stability index", 3.78),
    ("MYKLSSEQFHEAASKMESTIKPIR [R23I]", "protein stability index", 3.05),
    ("MYKLSSEQFHEAASKMESTHKPRR [I20H]", "protein stability index", 3.95),
    ("MYKLSSEQFHEAASKMESTIAPRR [K21A]", "protein stability index", 3.49),
    ("MYKLSSEQFHEAASFMESTIKPRR [K15F]", "protein stability index", 3.91),
    ("MYKLSSEQFHEAASKMESTIKPRA [R24A]", "protein stability index", 3.91),
    ("MYKLSSEYFHEAASKMESTIKPRR [Q8Y]", "protein stability index", 2.94),
    ("MYKLSSEQFHEAASKMESTIKERR [P22E]", "protein stability index", 3.93),
]
